- ASSAY_NAME: Cmax in CD-1 mouse plasma at 10 mg/kg, po and measured after 30 mins by LC-MS/MS analysis
- Assay type: ADME, organism-based
- Design: dose 10 mg/kg, time 30 min, route po
EXPERIMENTAL_READOUT: Cmax (ng/mL)
Write the number in ng/mL without appending the unit.

Q: Form field: reported Cmax of NC1=NC(c2ccc(F)cc2)CC(=O)N1 (stereo unspecified)
A: 665

* * *

- ASSAY_NAME: Kinetic aqueous solubility of the compound in PBS buffer at pH 7.4 at 250 uM and measured after 24 hrs by UPLC/MS analysis
- Assay type: physicochemical
- TEST_PARAMETERS: read-out: Kinetic_solubility
EXPERIMENTAL_READOUT: solubility kinetic at 24 h, 250 µM

Q: Look at this compound and give its reported solubility kinetic at 24 h, 250 µM. NC1=NC(c2ccc(F)cc2)CC(=O)N1 (stereo unspecified)
A: > 250 µM
